# Tested on: MS2 coat protein
# procedure summary: apparent KD of MS2 coat protein; higher = weaker reporter binding
# run parameters: Eterna round: R107; input ligand: theophylline 20 uM
Hi all, reminder that labels come from apparent KD of MS2 coat protein, split as bucket A (below 20 nM), bucket B (20 nM to below 70 nM), bucket C (70 nM or more)

- construct sequence: "UGUCAGCGAAAGUUGACAUGUCUUACCGGUCGAGGACCGGUACGGCCGCCACUCGAUCACUCGCACAUGAGGAUCACCCAUGUUG [SS Tryp A #21]"
  label class: "bucket B"
- construct sequence: "ACAUGAGGAUCACCCAUGUAUGGCGCGGAAGGAGCGUGAUUAAGCACAGGUAGGUCGCUGCGUUGAUCGAGCGUUAGCUCGAUAA [SSArg A #9]"
  label class: "bucket B"
- construct sequence: "UUUACAUGAGGAUCACCCAUGUGCCAUGAUACCAGACAUGAAAAUGUCCCUUGGCAGCAUGGGUGUAGCGUCGGGAAACCGACGC [Kohoutovice]"
  label class: "bucket C"
- construct sequence: "AACAUGAGGAUCACCCAUGUCGGGCCGGUGCGAGGACCGGUACGGCCGCCACUCGAGACAUGAGGAUCACCCAUGUUGUGCGUGA [Exclusion Tryptophan A GF23]"
  label class: "bucket C"
- construct sequence: "UGUUUUGUGGGAAGGAGCGCAUACUUCACAUGAGGAUCACCCAUGUCAAGACGUGAGUCAGUGCAGGUAGGUCGCCUAGUUAAGA [Same State - Arginine B (Freestyle 16)]"
  label class: "bucket B"
- construct sequence: "AAAUAAAUACAUGAGGAUCACCCAUGUGAAGGAGCGCCCGUUAGGGCAGGUAGGUCGCACAUGAAAGGGAAGCGAAAGAAAUAAU [ArgEX 15 #OpenEnded]"
  label class: "bucket B"

Q: Form: Item = CGGCCCUCACACGAGGAUCACCCGUGUGAUACCAGCCUGGAAACAGGCCCUUGGCAGCACAAGGUCAUCAAAGAUGACCAAGCCG [TheoAX 22 #SwitchBubble] ; Class = ?
A: bucket A

Q: // return the class label for GAUAUACGUGCGGCCGCCACUGAGUGGCGGGCGUGUCGAGUUACAUGAGGAUCACCCAUGUCACUCAGGACCGGGCACGGAAUUU [Soveri]
A: bucket A

Q: Tag the class for UGUAUGGACUGAAGGAGCGGUAGAUAACUUGAGGAUCACCCAGGUAAUAAGGCGAAAGCCUACCAGGUAGGUCGCAGUCCAUACU
A: bucket C

Q: Category of GGUCUCUGGAGCGAUACCAGCUUAAUCGUACUGGCCAGGUACAUGAGGAUCACCCAUGUAAGCCCUUGGCAGCGCUCCAGAGACC [#1 Exclusion - Theophylline B Attempt #11 (HarryS)] , please.
A: bucket A

Q: Could you tell me which band GGAUAGGACACGGCCGCCACUACCUAGGAUACUAGCAACAUUUGGGUACAUGAGGAUCACCCAUGUAGGACCGGGUGUCCUAUCG belongs to?
A: bucket B
